All values here come from the supplement of paper PMC10127200.

System: HEPG2
assay.protocol: Euclidean distance of Cell Painting phenotypic profile (signed KS, 77 features) to DMSO centroid (dimensionless distance); 5 or 10 uM (library dependent); higher = stronger phenotypic change vs DMSO (phenoactivity)
test.parameters: 48 h
Where a name gives a salt, the structure may show the parent alone.
Decision: Euclidean distance >= 1 yields true, all other cases yield false.

QUERY: Decide: Euclidean distance of CCOC(=O)[C@H](CCc1ccccc1)N[C@@H](C)C(=O)N1CCC[C@H]1C(=O)O [Enalapril Maleate] >= 1?
RESULT: false

QUERY: Now consider COC(=O)Nc1nc2cc(C(=O)c3cccs3)ccc2[nH]1 [Nocodazole] .
RESULT: true

QUERY: Same again, this time with "COc1cnc(-n2cnc(C)n2)c2[nH]cc(C(=O)C(=O)N3CCN(C(=O)c4ccccc4)CC3)c12"
RESULT: true

QUERY: Proceed to N#CCCCSC(=N)N [Kevetrin hydrochloride]
RESULT: false

QUERY: Also O=C(CCCN1CC=C(n2c(=O)[nH]c3ccccc32)CC1)c1ccc(F)cc1 [Droperidol] , if possible.
RESULT: false

QUERY: What do you get for C=CCc1ccc(O)c(-c2cc(CC=C)ccc2O)c1 [Magnolol] ?
RESULT: false
